Cited source for all entries: the Human Domainome abundance scans (Beltran et al. 2025)

B1: Peroxisome proliferator-activated receptor delta, residues 71 to 145; numbered along this chain, Q03181 (parent)
chain: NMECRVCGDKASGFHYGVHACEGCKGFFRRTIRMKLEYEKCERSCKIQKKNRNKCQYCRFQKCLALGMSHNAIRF

Variants of: B1
Experiment description: abundance fitness (aPCA) (normalised: wild type 0, dead -1); higher = more abundant; growth selection in yeast, the domain comes from the species named
Condition context: Homo sapiens
Classes are defined on abundance fitness with ranges LOW: < -0.5; MID: ≥ -0.5 and < 0.02; HIGH: ≥ 0.02

M34I    LOW
S69E    HIGH
N71E    HIGH

## Task Lab log: `N53E` — assign abundance fitness category
## Result HIGH

## Task Assign a bin to `H15E`
## Result MID

## Task Classify this variant: `C58I`
## Result LOW

## Task Which of the defined bands does the recorded abundance fitness of `N53D` sit within?
## Result MID

## Task Which of the defined bands does the recorded abundance fitness of `R5M` sit within?
## Result HIGH

## Task Please report the category associated with `A65F` , nothing else.
## Result MID
